Test system: IGROV1 ovarian
Protocol Description: NCI tumour cell line growth inhibition, 48 h; in the data active = GI50 below about 0.43 µM; inactive = the rest
Response enum: Y (active), N (inactive)

# count of solved cases: 5
Compound	Assay System	Discrete Label
COc1ccn2c(C(C)=O)cc(C(=O)c3ccc4c(c3)Sc3ccccc3N4)c2c1	IGROV1 ovarian	Y
O=Cc1cn(Cc2cccc(Cl)c2)c2ccccc12	IGROV1 ovarian	Y
Cc1nc2sc(C(=O)Nc3cccc4ccccc34)c(N)c2cc1C(=O)/C=C/c1ccccc1	IGROV1 ovarian	Y
C=C(C)[C@@H]1CC[C@]2(C(=O)NCCNCCNCCN)CC[C@]3(C)[C@H](CC[C@@H]4[C@@]5(C)CC[C@H](O)C(C)(C)[C@@H]5CC[C@]43C)[C@@H]12	IGROV1 ovarian	N
CC(C)(O)C1CCC(Nc2ccc3ncc(-c4cccc(C(F)(F)F)c4)n3n2)CC1 (stereo not drawn)	IGROV1 ovarian	N

State the result this test recorded for CCN(CCNc1ccc(C)c2sc3cc(Cl)ccc3c(=O)c12)CC(C)O (stereo not drawn) . N

State the result this test recorded for `COc1ccc(-c2nnc(SCC(=O)Nc3ccc(/C(C)=N\O)cc3)n2-c2ccccc2)cc1OC` . N

State the result this test recorded for `N#Cc1c(N)nc(N2CCOCC2)c(C#N)c1-c1ccc(Cl)cc1` . N

State the result this test recorded for `Cn1ccc2c(c1=O)C(=O)c1nccc3c1c-2nc1ccccc13` . N

State the result this test recorded for `N#Cc1cccc(C(=O)Nc2cccc(NC(=O)c3cccc(C#N)c3)c2)c1` . N

State the result this test recorded for `CS(=O)(=O)c1ccc(-c2cnc(N)c(C(=O)Nc3ccccc3)n2)cc1` . N

State the result this test recorded for `Cn1c(=O)c(Oc2ccc(F)cc2F)cc2cnc(NC(CO)CO)nc21` . N

State the result this test recorded for `N=c1c2c(-c3ccccc3)c(-c3ccccc3)n(Cc3ccccc3)c2ncn1CCCO` . N
